Target: CYP6Z3 (Anopheles gambiae, UniProt Q86LT6, H411Y/S209G/W396L)
Sequence (Q86LT6 1-492 S209G/W396L/H411Y): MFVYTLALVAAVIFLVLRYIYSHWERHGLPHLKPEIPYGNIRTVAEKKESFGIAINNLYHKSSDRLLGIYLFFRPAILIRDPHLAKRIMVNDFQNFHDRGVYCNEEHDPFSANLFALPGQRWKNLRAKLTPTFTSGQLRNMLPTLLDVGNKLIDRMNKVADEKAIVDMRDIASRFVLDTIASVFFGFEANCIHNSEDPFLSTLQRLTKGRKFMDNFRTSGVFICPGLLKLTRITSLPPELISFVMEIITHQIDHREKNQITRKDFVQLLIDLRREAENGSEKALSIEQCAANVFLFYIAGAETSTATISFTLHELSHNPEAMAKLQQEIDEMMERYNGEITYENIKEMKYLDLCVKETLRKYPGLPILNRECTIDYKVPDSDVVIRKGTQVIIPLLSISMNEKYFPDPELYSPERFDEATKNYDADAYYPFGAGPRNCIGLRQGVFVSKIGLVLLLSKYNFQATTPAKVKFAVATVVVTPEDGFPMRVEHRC
Sequence (Q86QH5 1-679 partner): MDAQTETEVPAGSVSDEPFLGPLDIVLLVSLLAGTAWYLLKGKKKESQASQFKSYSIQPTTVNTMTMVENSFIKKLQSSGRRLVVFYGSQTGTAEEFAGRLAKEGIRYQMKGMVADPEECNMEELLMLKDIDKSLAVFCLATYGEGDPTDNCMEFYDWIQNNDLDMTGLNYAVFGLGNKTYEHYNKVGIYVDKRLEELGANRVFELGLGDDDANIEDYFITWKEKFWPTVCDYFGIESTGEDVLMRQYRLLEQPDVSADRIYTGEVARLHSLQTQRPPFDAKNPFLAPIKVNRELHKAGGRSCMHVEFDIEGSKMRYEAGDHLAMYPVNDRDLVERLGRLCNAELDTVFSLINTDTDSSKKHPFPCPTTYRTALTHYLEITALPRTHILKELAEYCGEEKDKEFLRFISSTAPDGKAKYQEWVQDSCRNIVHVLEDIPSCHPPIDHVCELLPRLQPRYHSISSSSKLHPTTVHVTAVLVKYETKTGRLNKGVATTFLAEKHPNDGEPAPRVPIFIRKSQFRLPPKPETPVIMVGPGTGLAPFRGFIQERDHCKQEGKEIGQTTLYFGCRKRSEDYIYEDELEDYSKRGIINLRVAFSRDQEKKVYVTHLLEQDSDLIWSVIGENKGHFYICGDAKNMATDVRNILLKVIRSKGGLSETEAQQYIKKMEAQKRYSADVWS
Test: Inhibition screening of pyrethroids, diethoxyfluorescein, CYP6Z3
QUANTITY NAME: pIC50
Scale explanation: pIC50 corresponds to minus log10 of a concentration expressed in moles per litre.

# annotated cases, reported pIC50 shown
response.value for CC1(C)C(C=C(Cl)Cl)C1C(=O)OC(C#N)c1cccc(Oc2ccccc2)c1 (stereo not drawn) (field: pIC50) = 5.36

Lookup result for CC1(C)C(C=C(Cl)Cl)C1C(=O)OCc1cccc(Oc2ccccc2)c1 (stereo not drawn) ; measured pIC50: 5.43

Quick note, pIC50 for CC1(C)[C@H](C(=O)O[C@H](C#N)c2cccc(Oc3ccccc3)c2)[C@@H]1/C=C(\Cl)C(F)(F)F (racemic) landed at 5.48

Looking up CC1(C)[C@H](C(=O)O[C@H](C#N)c2cccc(Oc3ccccc3)c2)[C@@H]1C=C(Br)Br , I found its pIC50 recorded as 5.47

# pIC50 of CCOc1ccc(C(C)(C)COCc2cccc(Oc3ccccc3)c2)cc1 = 5.32

New cases:
The measured pIC50 associated with Cc1c(COC(=O)[C@@H]2[C@H](/C=C(\Cl)C(F)(F)F)C2(C)C)cccc1-c1ccccc1 (racemic) reads 4.77
